# maps each entry to its In vitro activity (%) compared with native peptide, vs Glucagon
Target: human GCG receptor (human, UniProt P47871 26-477)
Sequence (P47871 26-477): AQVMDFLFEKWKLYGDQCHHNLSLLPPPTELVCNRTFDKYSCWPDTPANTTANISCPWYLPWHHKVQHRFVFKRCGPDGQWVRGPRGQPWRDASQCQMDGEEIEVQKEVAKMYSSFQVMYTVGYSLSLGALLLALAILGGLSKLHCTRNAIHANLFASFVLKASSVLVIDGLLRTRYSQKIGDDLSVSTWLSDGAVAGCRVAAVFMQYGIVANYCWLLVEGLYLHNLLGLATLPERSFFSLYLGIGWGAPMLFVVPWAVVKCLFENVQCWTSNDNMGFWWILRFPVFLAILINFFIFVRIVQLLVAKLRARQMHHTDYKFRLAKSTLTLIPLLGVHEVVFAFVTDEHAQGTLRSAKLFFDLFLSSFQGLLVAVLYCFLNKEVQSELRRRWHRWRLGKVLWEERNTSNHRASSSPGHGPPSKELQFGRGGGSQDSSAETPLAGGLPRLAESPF
Assay: cell-based or functional assay
Bridge positions count the residues as written; N and C are the ends. Square brackets hold non-standard residues; d marks the D form. Ends that are not written are not given here. * marks the point of attachment. Acetyl(2-(4-imidazolyl)) = O=C(Cc1c[nH]cn1)*; Aib = CC(C)(N)C(=O)O

Consider the reported In vitro activity (%) compared with native peptide, vs Glucagon for these binders:
INSERT INTO assay_data (binder, result) VALUES
  ('Y[Aib]QGTFTSDYSKYLDECAAKDFVQWLLDHHPSSGQPPPS (bridge 16-20) [triple agonist of SEQ ID NO: 67]', '46.2%'),
  ('[Acetyl(2-(4-imidazolyl))]GQGTFTSDYSIQLDEIAVRDFVEWLKNGGPSSGAPPPSHG (not fully specified) [triple agonist of SEQ ID NO: 14]', '< 0.1%');

Ask | Consider the binder shown here: H[Aib]QGTFTSDYSKYLDEKRAQEFVCWLLAQKGKKNDWKHNIT (not fully specified) [triple agonist of SEQ ID NO: 28] What is its recorded In vitro activity (%) compared with native peptide, vs Glucagon?
Reply | 1.6%

Data provenance: patent US20230355720A1
